Below, each entry is listed with its recorded GI50.
- System: OVCAR-8 ovarian
- Method Summary: NCI tumour cell line growth inhibition, 48 h

Task item: Please supply the value of reported GI50 for the item NC1=NCCN1CC(=O)O
Reply: > 10000 µM

Task item: Check the records and state GI50 for CCCC(=O)O.CCCC(=O)O.CCCC(=O)O.CCCC(=O)O.[Rh].[Rh]
Reply: 0.0435 µM

Task item: Give reported GI50 value for C/C(=C(\c1ccc(OCCN2CCCCCC2)cc1)c1ccc(OC(=O)Cc2ccccc2)cc1)c1ccc(Cl)cc1
Reply: 3.24 µM

Task item: Please indicate GI50 recorded for C[C@H]1[C@H]2[C@H]3CC[C@@H]4[C@@]5(C)C/C(=C/c6cccnc6)C(=O)C(C)(C)[C@@H]5CC[C@@]4(C)[C@]3(C)CC[C@]23CO[C@]1(C)[C@@H](C(=O)/C=C\c1cccnc1)C3
Reply: 1.59 µM

Task item: Look up and state reported GI50 for S=C(N/N=C(/c1ccccc1)c1ccccn1)N1CCCCCC1
Reply: 0.00375 µM

Task item: # return recorded GI50 for input O=C(/C(=C/c1ccc([N+](=O)[O-])cc1)SCc1ccc(F)cc1)c1ccc(Cl)cc1
Reply: 6.6 µM

* * *

// TGI lookup, one value per entry
- Test system: A549 NSCLC
- Method Summary: NCI tumour cell line growth inhibition, 48 h

compound="CC(=O)OCC(OC(C)=O)C(OC(C)=O)C(OC(C)=O)C(C=NN(C(C)=O)S(=O)(=O)c1ccc(/C=C2\\NC(=O)NC2=O)cc1)OC(C)=O (stereo unspecified)" metric_name=TGI result="> 100 µM"
compound=CCOC(=O)[C@@H](C)C[C@H](Cc1ccccc1)NC(=O)c1csc([C@@H](C[C@H](C(C)C)N(C)C(=O)[C@H](CC)NC(=O)[C@H]2CCCCN2C)OC(C)=O)n1 metric_name=TGI result="> 16.7 µM"
compound=COc1ccc(-c2nc(N3CCN(C(=O)C4CCCCC4)CC3)c3c4c(sc3n2)CCCC4)cc1 metric_name=TGI result="> 100 µM"
compound=C#CCCCOc1ncccn1 metric_name=TGI result="> 100 µM"
compound=C[C@]12CC[C@H](O)CC1=CC[C@@H]1[C@@H]2CC[C@]2(C)C(=N/O)/C(=C/c3ccc([N+](=O)[O-])cc3)C[C@@H]12 metric_name=TGI result="17.7 µM"
compound=CC1=C([Te]c2ccc(O)cc2)C(=O)c2ccccc2C1=O metric_name=TGI result="4.18 µM"
compound=c1ccc(CN=C(NCc2ccccc2)NCc2ccccc2)cc1 metric_name=TGI result="25.3 µM"
compound=CCCCN(CCCC)CCCn1c(=O)c2c3ccccc3n(C)c2n2nnc(-c3ccccc3)c12 metric_name=TGI result="> 100 µM"

Task item: Print A549 NSCLC TGI for Cc1ccc(/C=C2\Cc3cccc(C)c3C2=O)c(C(=O)O)c1 .
Reply: > 100 µM

Task item: Under A549 NSCLC, report TGI for CN(Cc1ccccc1)C(=NC#N)N(C)Cc1ccccc1
Reply: > 100 µM

* * *

- Test system: MALME-3M melanoma
- Method Summary: NCI tumour cell line growth inhibition, 48 h; in the data active means GI50 below about 0.43 µM; inactive means the rest
Reply using exactly one outcome from active, inactive

Solved entries:
record_smiles=CCOC(=O)/C(=C(/C)NCC(C)C)c1cc(O)c(O)c2c(C)cc(=O)[nH]c12 qualitative_label=inactive
record_smiles=CCC[CH2][Sn]1([CH2]CCC)[O]C(=O)c2ccc(C)cc2[O]1 qualitative_label=active

Now take the following molecule into account.
Task item: Given C/C(=C(\c1ccc(OCCN2CCCCCC2)cc1)c1ccc(OC(=O)Cc2ccccc2)cc1)c1ccc(Cl)cc1 , state the outcome it received in this test.
Reply: inactive

The measurements presented in this section are drawn from PubChem BioAssay (NCI).
